- Target system: Voltage-gated inwardly rectifying potassium channel KCNH2 (Homo sapiens) (UniProt Q12809)
- Sequence (Q12809 whole entry, looked up): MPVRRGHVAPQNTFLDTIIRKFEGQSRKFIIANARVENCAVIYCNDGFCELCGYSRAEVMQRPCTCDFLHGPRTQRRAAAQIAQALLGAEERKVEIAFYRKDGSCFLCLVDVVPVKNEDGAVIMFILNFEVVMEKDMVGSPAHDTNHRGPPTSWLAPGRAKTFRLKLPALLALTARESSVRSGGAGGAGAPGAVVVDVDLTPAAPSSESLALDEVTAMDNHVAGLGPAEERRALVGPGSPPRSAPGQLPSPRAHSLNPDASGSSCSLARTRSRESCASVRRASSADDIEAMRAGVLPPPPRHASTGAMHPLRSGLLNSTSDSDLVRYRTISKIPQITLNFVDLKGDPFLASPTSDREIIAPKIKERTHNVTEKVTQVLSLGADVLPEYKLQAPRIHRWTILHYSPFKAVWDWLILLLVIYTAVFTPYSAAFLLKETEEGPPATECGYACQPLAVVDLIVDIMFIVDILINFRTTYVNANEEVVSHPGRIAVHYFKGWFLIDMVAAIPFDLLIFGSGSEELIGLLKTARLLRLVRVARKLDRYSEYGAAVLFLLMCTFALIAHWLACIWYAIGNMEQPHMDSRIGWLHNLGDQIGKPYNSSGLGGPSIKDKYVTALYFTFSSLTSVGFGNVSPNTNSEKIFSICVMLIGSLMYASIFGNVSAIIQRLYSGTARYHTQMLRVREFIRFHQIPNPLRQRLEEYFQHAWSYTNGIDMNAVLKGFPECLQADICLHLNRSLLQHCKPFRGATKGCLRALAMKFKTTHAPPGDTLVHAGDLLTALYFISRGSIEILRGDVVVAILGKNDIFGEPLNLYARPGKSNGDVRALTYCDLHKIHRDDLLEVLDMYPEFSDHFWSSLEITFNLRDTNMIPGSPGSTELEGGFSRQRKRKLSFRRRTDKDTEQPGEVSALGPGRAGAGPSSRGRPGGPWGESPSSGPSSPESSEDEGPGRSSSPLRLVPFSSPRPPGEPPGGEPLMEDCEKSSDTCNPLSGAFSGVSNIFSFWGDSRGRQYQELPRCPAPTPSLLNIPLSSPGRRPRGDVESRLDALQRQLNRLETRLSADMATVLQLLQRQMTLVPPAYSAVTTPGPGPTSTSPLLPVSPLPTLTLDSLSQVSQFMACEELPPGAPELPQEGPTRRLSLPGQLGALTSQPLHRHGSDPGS
- Assay comment: Human Ether-a-go-go-Related Gene (hERG) channel small molecule antagonists: fluorescence cell-based qHTS assay (AID 1671200); also: nearly all actives have a fitted effect of over 50% in size
- Recorded conditions: hERG-U2OS cells, FluxOR thallium flux fluorescence; series mostly up to 76.8 µM
Results filed as inconclusive are left out. Activity calls are given as the source filed them. Calls follow the shape of the dose curve; as a rule, active = well fitted inhibition curve with a large enough effect in the repeat runs; inconclusive = weak or mixed curves; inactive = flat fitted curve, though single readings scatter.
Outcomes: TRUE for active, FALSE for inactive

>>> category("Cc1cc2nc(N)sc2cc1C")
"FALSE"
>>> category("CC1CN(c2ccccc2)NC1=O (centres undefined)")
"FALSE"
>>> category("CCOc1ccc(NC(N)=O)cc1")
"FALSE"
>>> category("O=Cc1ccc(F)c(Br)c1")
"FALSE"
>>> category("CC(C)O")
"FALSE"
>>> category("CC(=O)Oc1cc(C(C)C)c(OCCN(C)C)cc1C")
"FALSE"
>>> category("CCCCCOc1ccc(C2SC(=O)NC2=O)cc1OCC (centres undefined)")
"FALSE"
>>> category("CCN(CC)CCOc1ccc(Cc2ccccc2)cc1")
"TRUE"
>>> category("Nc1cccc(S(=O)(=O)O)c1")
"FALSE"
>>> category("O=C1N(c2ccccc2)c2ccccc2C1(Cc1ccncc1)Cc1ccncc1")
"FALSE"
>>> category("CC1(C)S[C@@H]2[C@H](NC(=O)C(C(=O)O)c3ccccc3)C(=O)N2[C@H]1C(=O)O (some centres undefined)")
"FALSE"
>>> category("CCOc1ccc(NS(=O)(=O)c2ccc(N)cc2)nn1")
"FALSE"
>>> category("CN1[C@@H]2CC[C@H]1CC(OC(=O)c1c[nH]c3ccccc13)C2 (some centres undefined)")
"TRUE"
>>> category("CCC/C=C/CO")
"FALSE"

====

- Target system: Nuclear receptor subfamily 1 group I member 3 (Homo sapiens) (UniProt Q14994)
- Sequence (Q14994 whole entry, looked up): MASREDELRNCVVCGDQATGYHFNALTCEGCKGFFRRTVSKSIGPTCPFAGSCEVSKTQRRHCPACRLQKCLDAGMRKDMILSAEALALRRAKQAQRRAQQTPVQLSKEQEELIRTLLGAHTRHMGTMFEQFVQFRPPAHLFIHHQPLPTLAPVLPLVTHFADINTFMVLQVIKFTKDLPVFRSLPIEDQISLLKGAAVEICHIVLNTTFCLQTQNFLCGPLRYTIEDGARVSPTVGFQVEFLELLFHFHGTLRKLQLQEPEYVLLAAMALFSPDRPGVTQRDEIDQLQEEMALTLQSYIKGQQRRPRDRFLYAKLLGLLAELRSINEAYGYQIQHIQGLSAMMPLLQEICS
- Assay comment: qHTS assay to identify small molecule agonists of the constitutive androstane receptor (CAR) signaling pathway (AID 1224839); also: nearly all actives have a fitted effect of over 15% in size;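 as to activation: HepG2 cells stably carrying human CAR and a CYP2B6 luciferase reporter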
- Recorded conditions: HepG2 hCAR CYP2B6-luciferase, agonist mode, 24 h; series mostly up to 92.4 µM
Results filed as inconclusive are left out. Activity calls are given as the source filed them. The call rests on the fitted dose curve; in most records, active means well fitted activation curve with a large enough effect in the repeat runs; inconclusive means weak or mixed curves; inactive means no such curve, though single readings can be large or run the other way.
Outcomes: YES for active, NO for inactive

>>> category("CC1=C(O)C(=O)OC1C (centres undefined)")
"NO"
>>> category("ClC(Cl)Cl")
"NO"
>>> category("CCCCCCCOC(=O)CCC")
"NO"
>>> category("O=C1CCN(c2ccccc2)N1")
"NO"
>>> category("CCCNC(C)C(=O)Nc1c(C)csc1C(=O)OC (centres undefined)")
"NO"
>>> category("Cc1ccc(C=O)s1")
"NO"
>>> category("CCOC(=O)C1CC(=O)C(=C(O)C2CC2)C(=O)C1 (centres undefined)")
"NO"
>>> category("COc1ccccc1N1CCN(CCCNc2cc(=O)n(C)c(=O)n2C)CC1")
"NO"
>>> category("O=C1CCCCCCCCCCC(=O)OCCO1")
"NO"
>>> category("CCCOc1ccc2c(c1)CC[C@@H]1[C@@H]2CC[C@]2(C)C(OC)CC[C@@H]12 (some centres undefined)")
"NO"
>>> category("CCN(CC)CCOc1ccc(Cc2ccccc2)cc1")
"NO"
>>> category("COc1cc2c(cc1N)oc1ccccc12")
"YES"
>>> category("NS(=O)(=O)c1cc(-c2nn[nH]n2)c(NCc2cccs2)cc1Cl")
"NO"
>>> category("CCCCCCC")
"NO"

====

- Target system: Aryl hydrocarbon receptor (Homo sapiens) (UniProt P35869)
- Sequence (P35869 whole entry, looked up): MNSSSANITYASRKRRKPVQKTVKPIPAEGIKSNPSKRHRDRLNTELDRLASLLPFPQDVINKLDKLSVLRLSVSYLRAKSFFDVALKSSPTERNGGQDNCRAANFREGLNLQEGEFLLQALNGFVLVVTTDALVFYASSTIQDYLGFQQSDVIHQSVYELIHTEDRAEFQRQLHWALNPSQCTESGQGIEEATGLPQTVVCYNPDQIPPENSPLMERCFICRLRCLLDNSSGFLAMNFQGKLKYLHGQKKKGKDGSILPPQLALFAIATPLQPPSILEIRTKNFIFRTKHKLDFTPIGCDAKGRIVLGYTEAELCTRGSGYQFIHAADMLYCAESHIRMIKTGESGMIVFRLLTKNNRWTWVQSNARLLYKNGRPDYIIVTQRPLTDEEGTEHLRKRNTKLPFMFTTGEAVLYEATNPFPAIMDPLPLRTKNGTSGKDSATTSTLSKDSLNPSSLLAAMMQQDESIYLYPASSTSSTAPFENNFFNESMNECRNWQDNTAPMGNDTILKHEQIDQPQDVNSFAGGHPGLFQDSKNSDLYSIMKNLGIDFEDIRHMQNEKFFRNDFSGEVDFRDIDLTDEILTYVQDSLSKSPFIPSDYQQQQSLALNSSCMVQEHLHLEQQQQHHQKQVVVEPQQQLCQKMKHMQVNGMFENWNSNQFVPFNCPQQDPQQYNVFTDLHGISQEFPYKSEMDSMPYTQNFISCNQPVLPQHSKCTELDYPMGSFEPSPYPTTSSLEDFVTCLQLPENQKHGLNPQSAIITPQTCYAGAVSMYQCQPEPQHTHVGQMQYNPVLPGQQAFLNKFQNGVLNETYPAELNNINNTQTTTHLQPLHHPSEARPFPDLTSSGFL
- Assay comment: qHTS assay to identify small molecule that activate the aryl hydrocarbon receptor (AhR) signaling pathway (AID 743085); also: nearly all actives have a fitted effect of over 15% in size;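 as to activation: HG2L7.5c1 human HepG2 liver cells with stably integrated DRE-driven firefly reporter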
- Recorded conditions: HepG2 AhR-luc (HG2L7.5c1), luciferase, 24 h; series mostly up to 70.3 µM
Inconclusive results are not listed. The source made the active and inactive calls. Calls come from the whole dose curve; as a rule, active = well fitted activation curve with a large enough effect in the repeat runs; inconclusive = weak or mixed curves; inactive = no such curve, though single readings can be large or run the other way.
Outcome codes: active, inactive

>>> category("Cc1cccc(C)c1NC(=O)CN1CCCCCC1")
"inactive"
>>> category("Nc1ccc(Oc2ccc(N)c(N)c2)cc1")
"active"
>>> category("CCCCCCCCCC#N")
"inactive"
>>> category("CCCCNC(=S)NCCCC")
"inactive"
>>> category("CCCCCCCCCCCCCCCCOP(=O)([O-])OCC[N+](C)(C)C")
"inactive"
>>> category("CC(=O)OC1C2(C)CCC(C2)C1(C)C (stereo not drawn)")
"inactive"
>>> category("CS(=O)(=O)c1ccc([C@@H](O)[C@@H](CF)NC(=O)C(Cl)Cl)cc1")
"inactive"
>>> category("O=C(CC(=O)C(F)(F)F)c1ccccc1")
"inactive"
>>> category("CC1=C(CC(=O)O)c2cc(F)ccc2/C1=C\\c1ccc(S(C)(=O)=O)cc1")
"inactive"
>>> category("O=C(O)CN(CCN(CC(=O)O)CC(=O)O)CCN(CC(=O)O)CC(=O)O")
"inactive"
>>> category("CC(C)OC(C)C")
"inactive"
>>> category("CC(C)=CCCC(C)CCOC=O (stereo not drawn)")
"inactive"
>>> category("O=Cc1ccc(F)c(Br)c1")
"inactive"
>>> category("CCCCCCCOC(=O)CCC")
"inactive"
>>> category("CC(C)C1=CC2=CC[C@@H]3[C@](C)(CCC[C@@]3(C)C(=O)O)[C@H]2CC1")
"inactive"
>>> category("CN(C)CCOc1ccccc1Cc1ccccc1")
"inactive"
>>> category("COC(C)CCO (stereo not drawn)")
"inactive"
>>> category("CCOC(=O)NCCC[Si](OCC)(OCC)OCC")
"inactive"
>>> category("CCCCNc1cc(C(=O)O)cc(S(N)(=O)=O)c1Oc1ccccc1")
"inactive"
>>> category("O=S(=O)(O)C(F)(F)F")
"inactive"
>>> category("O=c1[nH]cnc2c1ncn2[C@@H]1O[C@H](CO)[C@@H](O)[C@H]1O")
"inactive"
>>> category("CCOC(=O)c1ccccc1O")
"inactive"
>>> category("OCCN(CCO)CCN(CCO)CCO")
"inactive"
>>> category("Clc1cccc(-c2cc(Cl)cc(Cl)c2)c1")
"inactive"
>>> category("O=C(O)c1cccc(Cl)c1Cl")
"inactive"
>>> category("NS(=O)(=O)c1cc(-c2nn[nH]n2)c(NCc2cccs2)cc1Cl")
"inactive"
>>> category("CN1C(=O)CC(c2ccccc2)C1=O (stereo not drawn)")
"inactive"
>>> category("COc1ccc2nc(NC(=O)Nc3ccccc3)sc2c1")
"active"
>>> category("C=Cc1ccccc1")
"inactive"
>>> category("CC1(O)CSC(C)(O)CS1 (stereo not drawn)")
"inactive"
>>> category("CC(C)(C)c1ccc(OC(=O)c2ccccc2O)cc1")
"inactive"
>>> category("Oc1ccccc1C=NCc1ccccc1")
"inactive"
>>> category("C=CCCCCCCCCO")
"inactive"
>>> category("CCCc1c2oc(C(=O)O)cc(=O)c2cc2c(=O)cc(C(=O)O)n(CC)c12")
"inactive"
>>> category("COC(=O)C(C)O (stereo not drawn)")
"inactive"
>>> category("Cc1cc(NS(=O)(=O)c2ccc(N)cc2)nc(C)n1")
"inactive"
>>> category("C[C@@H]1CN(c2c(F)c(N)c3c(=O)c(C(=O)O)cn(C4CC4)c3c2F)C[C@H](C)N1")
"inactive"
>>> category("CCC(=O)O[C@]1(C(=O)SCF)[C@H](C)C[C@H]2[C@@H]3C[C@H](F)C4=CC(=O)C=C[C@]4(C)[C@@]3(F)[C@@H](O)C[C@@]21C")
"inactive"
>>> category("C=CC(C)(O)CC/C=C(\\C)CCC=C(C)C (stereo not drawn)")
"inactive"
>>> category("CO[C@@]1(NC(=O)CSCC#N)C(=O)N2C(C(=O)O)=C(CSc3nnnn3C)CS[C@@H]21")
"inactive"
>>> category("OCCN1CCN(CCO)CC1")
"inactive"
>>> category("CC(C)O")
"inactive"
>>> category("CN1CCN(c2c(F)cc3c(=O)c(C(=O)O)cn(CCF)c3c2F)CC1")
"inactive"
>>> category("ClC(Cl)Cl")
"inactive"
>>> category("CC(=O)N(CC(O)CN(C(C)=O)c1c(I)c(C(=O)NCC(O)CO)c(I)c(C(=O)NCC(O)CO)c1I)c1c(I)c(C(=O)NCC(O)CO)c(I)c(C(=O)NCC(O)CO)c1I (stereo not drawn)")
"inactive"
>>> category("CN(C)C(=O)NC1(c2ccccc2)CCN(CCC[C@]2(c3ccc(Cl)c(Cl)c3)CCCN(C(=O)c3ccccc3)C2)CC1")
"inactive"
>>> category("CC/C=C\\CCOC(=O)CCCCC")
"inactive"
>>> category("CC(=O)Oc1cc(C(C)C)c(OCCN(C)C)cc1C")
"inactive"
>>> category("CCCN(CCC)C(=O)C(CCC(=O)O)NC(=O)c1ccccc1 (stereo not drawn)")
"inactive"
>>> category("CC(=O)OC(C)OC(C)=O")
"inactive"
>>> category("CCC/C=C/CO")
"inactive"
>>> category("CCCCOc1cc(C(=O)NCCN(CC)CC)c2ccccc2n1")
"inactive"
>>> category("O=C(C(Cl)Cl)N1CCOC12CCCCC2")
"inactive"
